Measured kon, listed per entry.
- STUDY_TARGET: Recombinant human his-tagged IGF R extracellular domain protein (human) (UniProt P08069)
- PROCEDURE_TEXT: SPR, Ab captured via anti-huIgG Fc, pH 7.4
MEASURED_ENDPOINT: kon (M⁻¹ s⁻¹)

VRDN-02038 (antibody, V domains shown) VH: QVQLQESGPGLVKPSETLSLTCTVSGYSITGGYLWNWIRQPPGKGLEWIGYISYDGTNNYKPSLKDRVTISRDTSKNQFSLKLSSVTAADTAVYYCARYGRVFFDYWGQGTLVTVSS VL: DIVMTQSPLSLPVTPGEPASISCRSSQSIVHSNHNTYLQWYLQKPGQSPQLLIYKVSNRLYGVPDRFSGSGSGTDFTLKISRVEAEDVGVYYCFQGSHVPWTFGQGTKVEIK = 82600
VRDN-02054 (antibody, V domains shown) VH: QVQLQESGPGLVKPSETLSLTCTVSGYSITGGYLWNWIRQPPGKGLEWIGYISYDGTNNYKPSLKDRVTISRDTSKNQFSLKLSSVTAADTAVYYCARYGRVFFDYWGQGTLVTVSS VL: DIVMTQSPLSLPVTPGEPASISCRSSQSIVHSNGNTYLQWYLQKPGQSPQLLIYKVSNRLYGVPDRFSGSGSGTDFTLKISRVEAEDVGVYYCFQGHHVPWTFGQGTKVEIK = 73900
VRDN-02042 (antibody, V domains shown) VH: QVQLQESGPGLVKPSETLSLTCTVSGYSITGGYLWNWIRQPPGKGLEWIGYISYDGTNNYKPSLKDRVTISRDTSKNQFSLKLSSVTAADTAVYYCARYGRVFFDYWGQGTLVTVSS VL: DIVMTQSPLSLPVTPGEPASISCRSSQSIVHSNGNTYHQWYLQKPGQSPQLLIYKVSNRLYGVPDRFSGSGSGTDFTLKISRVEAEDVGVYYCFQGSHVPWTFGQGTKVEIK = 104000
VRDN-02025 (antibody, V domains shown) VH: QVQLQESGPGLVKPSETLSLTCTVSGYSITGGYLWNWIRQPPGKGLEWIGYISYDGTNNYKPSLKDRVTISRDTSKNQFSLKLSSVTAADTAVYYCARYGRVHFDYWGQGTLVTVSS VL: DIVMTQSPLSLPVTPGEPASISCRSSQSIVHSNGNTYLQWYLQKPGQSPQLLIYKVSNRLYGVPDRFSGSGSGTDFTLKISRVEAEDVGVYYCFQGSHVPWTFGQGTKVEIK = 68000
VRDN-02026 (antibody, V domains shown) VH: QVQLQESGPGLVKPSETLSLTCTVSGYSITGGYLWNWIRQPPGKGLEWIGYISYDGTNNYKPSLKDRVTISRDTSKNQFSLKLSSVTAADTAVYYCARYGRVFHDYWGQGTLVTVSS VL: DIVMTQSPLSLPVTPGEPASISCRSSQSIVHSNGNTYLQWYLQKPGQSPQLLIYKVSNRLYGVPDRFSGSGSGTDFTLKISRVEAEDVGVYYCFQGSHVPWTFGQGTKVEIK = 41500
